# targetSystem: T1, Hdm2 140-350 (polyhistidine-tagged, bacterial) (human, UniProt Q00987 140-350)
# T1 construct: The sense primer places an ATG before residue 141, so position 140 of the construct may be Met; also called Hdm2 140-350 polypeptide; not shown: N-terminal polyhistidine tag of pET28a
# T1 sequence (Q00987 140-350): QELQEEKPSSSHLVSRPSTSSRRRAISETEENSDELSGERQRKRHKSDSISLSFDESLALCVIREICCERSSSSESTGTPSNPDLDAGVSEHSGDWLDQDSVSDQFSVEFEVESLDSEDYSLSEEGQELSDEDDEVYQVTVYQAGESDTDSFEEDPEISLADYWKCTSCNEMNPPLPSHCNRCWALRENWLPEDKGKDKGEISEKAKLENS
# testMethodNotes: immunoprecipitation and blot with bacterial Hdm2 140-350
measuredProperty: binding result

Record request: binding result value, item mouse p19^ARF Δ1-14 (HA-tagged deletion mutant) (other, also called p19^ARF mutant lacking amino acid residues 1-14; not shown: N-terminal HA tag of the HA-tagged ARF cDNA template) GRPLQERVFLVKFVRSRRPRTASCALAFVNMLLRLERILRRGPHRNPGPGDDDGQRSRSSSSAQLRCRFELRGPHYLLPPGARRSAGRLPGHAGGAARVRGSAGCARCLGSPAARLGPRAGTSRHRAIFAFRWVLFVFRWVVFVYRWERRPDRRA
binds

Record request: binding result value, item mouse p19^ARF Δ15-25 (HA-tagged deletion mutant) (other, not shown: N-terminal HA tag of the HA-tagged ARF cDNA template) MGRRFLVTVRIQRAKFVRSRRPRTASCALAFVNMLLRLERILRRGPHRNPGPGDDDGQRSRSSSSAQLRCRFELRGPHYLLPPGARRSAGRLPGHAGGAARVRGSAGCARCLGSPAARLGPRAGTSRHRAIFAFRWVLFVFRWVVFVYRWERRPDRRA
binds

Record request: binding result value, item mouse p19^ARF Δ26-37 (HA-tagged deletion mutant) (other, also called HA-ARF Δ26-37; not shown: N-terminal HA tag) MGRRFLVTVRIQRAGRPLQERVFLVCALAFVNMLLRLERILRRGPHRNPGPGDDDGQRSRSSSSAQLRCRFELRGPHYLLPPGARRSAGRLPGHAGGAARVRGSAGCARCLGSPAARLGPRAGTSRHRAIFAFRWVLFVFRWVVFVYRWERRPDRRA
binds
